# Test system: Fibroblast
# experiment-notes: Multiplex assay against human fibroblast
# Assay type: toxicity, cell-based
# condition-context: 48 h, 1 µM, compound concentration 1 uM, replicate 1
Non-standard residues stand in square brackets, D forms with d. Residues, ends and D or L forms follow the SMILES beside them.
The recorded Population Apoptotic (%) of each item maps onto one of these classes: low band: < 60%; middle band: ≥ 60% and < 70%; high band: ≥ 70%

1. CC(F)(F)CN1CCOc2c(nn(-c3ccccc3Cl)c2-c2ccc(Cl)cc2)C1=O = low band
2. N[C@](CC1c2ccccc2Oc2ccccc21)(C(=O)O)[C@H]1C[C@@H]1C(=O)O = middle band
3. CN(C)C(=O)Cn1cc(-c2ccc(-c3nnc4ccccn34)cc2)cn1 = low band
4. CC(C)C[C@H](CO)Nc1nc(S[C@@H](C)c2ccccc2)nc2nc(N)sc12 [AZD-8797] = low band
5. CC(C)(O)C(=O)N1CCN(c2ccc(C(F)(F)F)c(C3=C(c4c[nH]c5ccccc45)C(=O)NC3=O)c2)CC1 = middle band
6. CCC(=O)OCC(=O)[C@@]1(OC(=O)CC)[C@@H](C)C[C@H]2[C@@H]3CCC4=CC(=O)C=C[C@]4(C)[C@@]3(Cl)[C@@H](O)C[C@@]21C [BECLOMETHASONE DIPROPIONATE] = low band
7. C[C@H](NC(=O)CNC(=O)c1cccc(Cl)c1)c1ccccc1 = low band
8. COc1ccc2c(c1OCc1ccccc1)C[C@@H](C(=O)O)N(C(=O)C(c1ccccc1)c1ccccc1)C2 [OLODANRIGAN] = low band
9. Cc1cc(-c2ccc3c(c2)CC[C@H]3N2CC3(CCN(C(=O)Cc4cn5cc(C)sc5n4)CC3)C2)ncn1 [PF-5190457] = high band
10. S=C(NCCCc1c[nH]cn1)NCCCN(Cc1ccc(Cl)c(Cl)c1)c1ccc(Br)cn1 = high band
11. C[C@@H]1CC(=O)Nc2cccc(-c3ccc4c(c3)c(-c3cnn(C)c3)nn4C)c2N1 = low band
12. COc1cc(C(=O)N2CC[C@@H](O)[C@@H](N)C2)cc2nc(-c3cc4ccccc4n3CC3CC3)n(C)c12.Cl = high band
13. O=C(O)CCC/C=C\CC1C(O)CC(O)C1/C=C/C(O)COc1cccc(Cl)c1 (stereo not given) [CLOPROSTENOL] = middle band
14. Nc1nc(CC(=O)Nc2ccc(CCNC[C@H](O)c3ccccc3)cc2)cs1 [MIRABEGRON] = high band
15. Cc1cc(=O)n(C)c2cc(N3C(=O)CC[C@H](NS(=O)(=O)CC(C)C)[C@H]3c3ccc(Cl)cc3)ccc12 = low band
16. CCc1nn2c(C)cc(C)nc2c1Cc1ccc(-c2nnc(C3CCNCC3)o2)cc1 = high band
17. COc1ccc2[nH]c(I)c(CCNC(C)=O)c2c1 [IODOMELATONIN] = high band
18. COc1cc(OC2CCN(C(C)=O)CC2)ccc1C(=O)N1CCC(N2C(=O)OCc3ccccc32)CC1 = low band
19. OCCCNc1cc(-c2ccnc(Nc3cccc(Cl)c3)n2)ccn1 = low band
20. CC(C)C[C@@H]1NC(=O)[C@@H](C(C)C)NC(=O)[C@@H]2CCCN2C(=O)[C@@H](CC(=O)O)NC(=O)[C@@H](Cc2c[nH]c3ccccc23)NC1=O [BQ-123] (cyclo(L[dW][dD]P[dV])) = low band
21. O=C(Nc1cc(-c2ccccc2)nn1-c1ccccc1F)c1ccc([N+](=O)[O-])cc1 = low band
22. Cc1ccc(OCC(O)C(C)NC(C)C)c2c1CCC2.Cl (stereo not given) = middle band
23. COc1c(Nc2ccc(S(C)(=O)=O)nc2C)ncnc1OC1CCN(C(=O)OC(C)C)CC1 [ADP-597] = middle band
24. CN1CCN2c3ccccc3Cc3ccccc3C2C1.Cl (stereo not given) [MIANSERIN HYDROCHLORIDE] = high band
25. CCCCCCNC(=O)Nc1ccc(S(=O)(=O)Nc2ccc(CCNC[C@H](O)COc3ccc(O)cc3)cc2)cc1 [L-755507] = middle band
26. CCCCC[C@H](O)/C=C/[C@H]1[C@H](O)CC(=O)[C@@H]1CCCCCCC(=O)O [ALPROSTADIL] = low band
27. O=c1ccc2ccc(OCCCCN3CCN(c4cccc5sccc45)CC3)cc2[nH]1 [BREXPIPRAZOLE] = middle band

---

Listed next: entries and their corresponding Population Apoptotic (%).
# Tested on: Fibroblast
# experiment-notes: Multiplex assay against human fibroblast
# Format: toxicity, cell-based
# condition-context: 48 h, 10 µM, compound concentration 10 uM, replicate 2
endpoint-label: Population Apoptotic (%)

1. Cc1cc(-c2ccc3c(c2)CC[C@H]3N2CC3(CCN(C(=O)Cc4cn5cc(C)sc5n4)CC3)C2)ncn1 = 62%
2. COc1ccc2[nH]c(I)c(CCNC(C)=O)c2c1 = 38%
3. CC(C)C[C@H](CO)Nc1nc(S[C@@H](C)c2ccccc2)nc2nc(N)sc12 = 35%
4. Cc1nn(C)c2nc(NNC(=O)Nc3cc(Cl)nc(Cl)c3)cc(C(C)C)c12 = 62%
5. CC(F)(F)CN1CCOc2c(nn(-c3ccccc3Cl)c2-c2ccc(Cl)cc2)C1=O = 54%

---

# Test system: Fibroblast
# experiment-notes: Multiplex assay against human fibroblast
# Type: toxicity, cell-based
# condition-context: 24 h, 10 µM, compound concentration 10 uM, replicate 1
endpoint-label: Population Hoechst High Intensity Objects (%)

1. CCn1c(-c2nc3cc(C(=O)N4CCCC(N)C4)ccc3n2C)cc2ccccc21.Cl (stereo not drawn) = 3
2. COC(c1ccccc1)(c1ccccc1)[C@H](Oc1nc(C)cc(C)n1)C(=O)O = 7
3. Cn1cc(C(=O)OCC2CCN(CCNS(C)(=O)=O)CC2)c2ccccc21 = 5
4. COc1cc(OC2CCN(C(C)=O)CC2)ccc1C(=O)N1CCC(N2C(=O)OCc3ccccc32)CC1 = 7
5. COCCn1c(C)c(C)s/c1=N\C(=O)C1C(C)(C)C1(C)C = 4
6. CCC(=O)OCC(=O)[C@@]1(OC(=O)CC)[C@@H](C)C[C@H]2[C@@H]3CCC4=CC(=O)C=C[C@]4(C)[C@@]3(Cl)[C@@H](O)C[C@@]21C [BECLOMETHASONE DIPROPIONATE] = 6
7. Cl.Cl.OCCOCCN1CCN(C(c2ccccc2)c2ccc(Cl)cc2)CC1 (stereo not drawn) [HYDROXYZINE HYDROCHLORIDE] = 1
8. CC(C)(O)C(=O)N1CCN(c2ccc(C(F)(F)F)c(C3=C(c4c[nH]c5ccccc45)C(=O)NC3=O)c2)CC1 = 7

---

# System: Fibroblast
# experiment-notes: Multiplex assay against human fibroblast
# Format: toxicity, cell-based
# condition-context: 24 h, 1 µM, compound concentration 1 uM, replicate 2
Non-standard residues stand in square brackets, D forms with d. Residues, ends and D or L forms follow the SMILES beside them.
Rule: Population Membrane Permeable-Phenotype (%) below 6% gives Criterion met, anything at or above gives Criterion not met.

1) O=C(O)CCC/C=C\CC1C(O)CC(O)C1/C=C/C(O)COc1cccc(Cl)c1 (configuration not stated) = Criterion not met
2) C[C@@H]1CC(=O)Nc2cccc(-c3ccc4c(c3)c(-c3cnn(C)c3)nn4C)c2N1 = Criterion not met
3) Cc1cc(-c2ccc3c(c2)CC[C@H]3N2CC3(CCN(C(=O)Cc4cn5cc(C)sc5n4)CC3)C2)ncn1 = Criterion met
4) CC(C)C[C@@H]1NC(=O)[C@@H](C(C)C)NC(=O)[C@@H]2CCCN2C(=O)[C@@H](CC(=O)O)NC(=O)[C@@H](Cc2c[nH]c3ccccc23)NC1=O [BQ-123] (cyclo(L[dW][dD]P[dV])) = Criterion met
5) COc1cc(Nc2ncc3c(n2)-c2ccc(Cl)cc2C(c2c(F)cccc2OC)=NC3)ccc1C(=O)O = Criterion met
6) CCn1c(-c2nc3cc(C(=O)N4CCCC(N)C4)ccc3n2C)cc2ccccc21.Cl (configuration not stated) = Criterion met

---

# Tested on: U2OS
# experiment-notes: Multiplex assay against U2OS
# Assay type: toxicity, cell-based
# condition-context: human, 24 h, 1 µM, compound concentration 1 uM, replicate 1
Non-standard residues stand in square brackets, D forms with d. Residues, ends and D or L forms follow the SMILES beside them.
Is Population Mitochondria Different-Phenotype (%) at least 3%? Then Met. If not, Not met.

1. CN1CCN2c3ccccc3Cc3ccccc3C2C1.Cl (stereo not drawn) [MIANSERIN HYDROCHLORIDE] = Not met
2. O=C(Nc1cc(-c2ccccc2)nn1-c1ccccc1F)c1ccc([N+](=O)[O-])cc1 = Met
3. CN1CCN(c2ccc(Nc3c4ccccc4nc4ccccc34)cc2)CC1.Cl.Cl.O = Met
4. CC(C)C[C@@H]1NC(=O)[C@@H](C(C)C)NC(=O)[C@@H]2CCCN2C(=O)[C@@H](CC(=O)O)NC(=O)[C@@H](Cc2c[nH]c3ccccc23)NC1=O [BQ-123] (cyclo(L[dW][dD]P[dV])) = Not met
5. CCCCCCNC(=O)Nc1ccc(S(=O)(=O)Nc2ccc(CCNC[C@H](O)COc3ccc(O)cc3)cc2)cc1 = Met
